// provenance: patent US20240158370A1

# Measured On: GSPT1 (Homo sapiens, UniProt P15170+Q96SW2)
# Sequence (P15170 whole entry, one chain of several): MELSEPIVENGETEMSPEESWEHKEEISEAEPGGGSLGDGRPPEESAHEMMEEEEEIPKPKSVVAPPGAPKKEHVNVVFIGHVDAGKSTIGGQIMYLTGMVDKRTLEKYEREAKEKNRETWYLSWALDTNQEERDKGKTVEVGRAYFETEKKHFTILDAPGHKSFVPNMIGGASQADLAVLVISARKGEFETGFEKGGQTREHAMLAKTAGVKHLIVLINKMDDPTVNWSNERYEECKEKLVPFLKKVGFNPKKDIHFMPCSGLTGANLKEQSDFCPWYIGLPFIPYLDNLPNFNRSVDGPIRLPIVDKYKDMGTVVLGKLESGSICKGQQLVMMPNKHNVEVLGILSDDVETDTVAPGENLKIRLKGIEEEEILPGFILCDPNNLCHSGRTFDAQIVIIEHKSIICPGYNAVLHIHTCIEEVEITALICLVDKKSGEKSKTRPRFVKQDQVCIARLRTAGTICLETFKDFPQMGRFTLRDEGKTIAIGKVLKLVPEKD
# Assay Protocol: HiBiT degradation assay, GSPT1, Procedure A
# Format: cell-based
# Parameters: HiBit-GSPT1 KI HEK293(LgBit) Cells; host or cells: HEK293(LgBit) knock-in cells
# Conditions Used: six hours
Recorded Metric: DC50

Use these answered entries as a reference point.
CCOC(=O)Cc1cccc(-c2c(-c3ccc4c(c3)CN(C3CCC(=O)NC3=O)C4=O)cnn2C)c1 (stereo not shown) :: ≥ 25 nM
Cn1c(C2CCOCC2)nc(-c2ccc3c(c2)CN(C2CCC(=O)NC2=O)C3=O)c1-c1cncnc1 (stereo not shown) :: ≥ 25 nM
Cn1ncc(-c2ccc3c(c2)CN(C2CCC(=O)NC2=O)C3=O)c1-c1ccc2c(c1)CCCO2 (stereo not shown) :: ≥ 25 nM
Cc1ccccc1-c1nc(-c2ccc3c(c2)CN(C2CCC(=O)NC2=O)C3=O)cn1C (stereo not shown) :: < 25 nM
Cn1cnc(-c2ccc3c(c2)CN(C2CCC(=O)NC2=O)C3=O)c1-c1ccc2ncsc2c1 (stereo not shown) :: < 25 nM
Cn1ncc(-c2ccc3c(c2)CN(C2CCC(=O)NC2=O)C3=O)c1-c1ccn(C)c(=O)c1 (stereo not shown) :: ≥ 25 nM
Cn1c(C2CCOCC2)nc(-c2ccc3c(c2)CN(C2CCC(=O)NC2=O)C3=O)c1-c1cccnc1 (stereo not shown) :: ≥ 25 nM
Cn1cc(-c2ccc3c(c2)CN(C2CCC(=O)NC2=O)C3=O)nc1-c1cccc(OC2CC2)c1 (stereo not shown) :: ≥ 25 nM
Cn1ncc(-c2ccc3c(c2)CN(C2CCC(=O)NC2=O)C3=O)c1C1CCCCC1 (stereo not shown) :: ≥ 25 nM
COc1ccc(-c2nc(-c3ccc4c(c3)CN(C3CCC(=O)NC3=O)C4=O)cn2C)cc1Cl (stereo not shown) :: ≥ 25 nM

Item Cn1ncc(-c2ccc3c(c2)CN(C2CCC(=O)NC2=O)C3=O)c1-c1ccc2scnc2c1 (stereo not shown) has what recorded DC50? ≥ 25 nM

---

# Measured On: GSPT1 (Homo sapiens, UniProt P15170+Q96SW2)
# Assay Protocol: HiBiT degradation assay, GSPT1, Procedure A
# Type: cell-based
# Set-up: HiBit-GSPT1 KI HEK293(LgBit) Cells; host or cells: HEK293(LgBit) knock-in cells
# Conditions Used: six hours
Items are presented alongside their recorded DC50.

Cc1c(-c2c(-c3ccc4c(c3)CN(C3CCC(=O)NC3=O)C4=O)ncn2C)cnn1-c1ccccc1 (stereo not shown) [Example 407] :: ≥ 25 nM
Cn1nc(-c2ccc3c(c2)CN(C2CCC(=O)NC2=O)C3=O)nc1C1CCOCC1 (stereo not shown) [Example 599] :: ≥ 25 nM
CCCCCCc1ccc(-c2nc(-c3ccc4c(c3)CN(C3CCC(=O)NC3=O)C4=O)cn2C)cc1 (stereo not shown) [Example 575] :: ≥ 25 nM
Cn1ncc(-c2ccc3c(c2)CN(C2CCC(=O)NC2=O)C3=O)c1-c1cccc(CCCCCCc2ccccc2)c1 (stereo not shown) [Example 409] :: ≥ 25 nM
Cn1ncc(-c2ccc3c(c2)CN(C2CCC(=O)NC2=O)C3=O)c1-c1ccc(C(C)(F)F)cc1 (stereo not shown) [Example 541] :: < 25 nM
[2H]C([2H])([2H])n1ncc(-c2ccc3c(c2)CN(C2CCC(=O)NC2=O)C3=O)c1-c1ccc2c(c1)CCO2 (stereo not shown) [Example 432] :: ≥ 25 nM

Pending compound:
Item Cc1oncc1-c1c(-c2ccc3c(c2)CN(C2CCC(=O)NC2=O)C3=O)cnn1C (stereo not shown) [Example 452] has what recorded DC50? ≥ 25 nM

---

Items are presented alongside their recorded DC50.
# Measured On: GSPT1 (Homo sapiens, UniProt P15170+Q96SW2)
# Assay Protocol: HiBiT degradation assay, GSPT1, Procedure A
# Type: cell-based
# Parameters: HiBit-GSPT1 KI HEK293(LgBit) Cells; host or cells: HEK293(LgBit) knock-in cells
# Conditions Used: six hours incubation

Give DC50 (GSPT1 (Homo sapiens, UniProt P15170+Q96SW2)) of the following compound: O=C1CCC(N2Cc3cc(-c4coc(-c5ccccc5)n4)ccc3C2=O)C(=O)N1 (centres unmarked) [Example 37] ≥ 25 nM

Give DC50 (GSPT1 (Homo sapiens, UniProt P15170+Q96SW2)) of the following compound: Cn1cnc(-c2ccc3c(c2)CN(C2CCC(=O)NC2=O)C3=O)c1-c1ccc(Cl)c(F)c1 (centres unmarked) [Example 260] < 25 nM

Give DC50 (GSPT1 (Homo sapiens, UniProt P15170+Q96SW2)) of the following compound: Cc1ccc(Cl)cc1-c1c(-c2ccc3c(c2)CN(C2CCC(=O)NC2=O)C3=O)ncn1C (centres unmarked) [Example 196] < 25 nM

Give DC50 (GSPT1 (Homo sapiens, UniProt P15170+Q96SW2)) of the following compound: O=C1CCC(N2Cc3cc(-c4cc(-c5ccccc5)n(C(F)F)n4)ccc3C2=O)C(=O)N1 (centres unmarked) [Example 337] ≥ 25 nM

Give DC50 (GSPT1 (Homo sapiens, UniProt P15170+Q96SW2)) of the following compound: CNC(=O)c1ccc(-c2c(-c3ccc4c(c3)CN(C3CCC(=O)NC3=O)C4=O)cnn2C)cc1 (centres unmarked) [Example 56] ≥ 25 nM

---

Items are presented alongside their recorded DC50.
# Measured On: CK1α (Homo sapiens, UniProt P48729+Q96SW2)
# Construct: CSNK1A1-HiBit KI HEK293(LgBit) Cells; host or cells: HEK293(LgBit) knock-in cells
# Sequence (P48729 whole entry): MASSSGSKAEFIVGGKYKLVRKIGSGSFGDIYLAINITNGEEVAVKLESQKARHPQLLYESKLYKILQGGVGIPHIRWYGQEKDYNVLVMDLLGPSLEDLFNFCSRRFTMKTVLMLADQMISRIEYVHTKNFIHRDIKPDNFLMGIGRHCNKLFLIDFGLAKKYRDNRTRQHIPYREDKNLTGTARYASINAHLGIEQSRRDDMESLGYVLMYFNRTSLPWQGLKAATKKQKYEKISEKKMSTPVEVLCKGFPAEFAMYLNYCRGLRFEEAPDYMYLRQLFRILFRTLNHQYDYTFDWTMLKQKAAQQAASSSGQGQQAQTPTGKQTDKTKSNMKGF
# Sequence (Q96SW2 whole entry): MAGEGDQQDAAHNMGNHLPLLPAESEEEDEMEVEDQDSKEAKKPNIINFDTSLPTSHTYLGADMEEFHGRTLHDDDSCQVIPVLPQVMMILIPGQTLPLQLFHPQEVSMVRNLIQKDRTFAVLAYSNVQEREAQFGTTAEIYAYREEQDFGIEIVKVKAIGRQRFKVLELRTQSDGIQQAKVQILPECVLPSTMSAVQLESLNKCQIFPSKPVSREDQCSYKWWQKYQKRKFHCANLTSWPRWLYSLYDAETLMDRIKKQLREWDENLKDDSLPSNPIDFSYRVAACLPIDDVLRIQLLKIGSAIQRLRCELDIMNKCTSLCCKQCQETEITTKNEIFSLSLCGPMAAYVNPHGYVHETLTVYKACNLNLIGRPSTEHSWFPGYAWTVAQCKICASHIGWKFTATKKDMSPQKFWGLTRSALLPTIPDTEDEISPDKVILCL
# Sequence (Q16531 whole entry partner): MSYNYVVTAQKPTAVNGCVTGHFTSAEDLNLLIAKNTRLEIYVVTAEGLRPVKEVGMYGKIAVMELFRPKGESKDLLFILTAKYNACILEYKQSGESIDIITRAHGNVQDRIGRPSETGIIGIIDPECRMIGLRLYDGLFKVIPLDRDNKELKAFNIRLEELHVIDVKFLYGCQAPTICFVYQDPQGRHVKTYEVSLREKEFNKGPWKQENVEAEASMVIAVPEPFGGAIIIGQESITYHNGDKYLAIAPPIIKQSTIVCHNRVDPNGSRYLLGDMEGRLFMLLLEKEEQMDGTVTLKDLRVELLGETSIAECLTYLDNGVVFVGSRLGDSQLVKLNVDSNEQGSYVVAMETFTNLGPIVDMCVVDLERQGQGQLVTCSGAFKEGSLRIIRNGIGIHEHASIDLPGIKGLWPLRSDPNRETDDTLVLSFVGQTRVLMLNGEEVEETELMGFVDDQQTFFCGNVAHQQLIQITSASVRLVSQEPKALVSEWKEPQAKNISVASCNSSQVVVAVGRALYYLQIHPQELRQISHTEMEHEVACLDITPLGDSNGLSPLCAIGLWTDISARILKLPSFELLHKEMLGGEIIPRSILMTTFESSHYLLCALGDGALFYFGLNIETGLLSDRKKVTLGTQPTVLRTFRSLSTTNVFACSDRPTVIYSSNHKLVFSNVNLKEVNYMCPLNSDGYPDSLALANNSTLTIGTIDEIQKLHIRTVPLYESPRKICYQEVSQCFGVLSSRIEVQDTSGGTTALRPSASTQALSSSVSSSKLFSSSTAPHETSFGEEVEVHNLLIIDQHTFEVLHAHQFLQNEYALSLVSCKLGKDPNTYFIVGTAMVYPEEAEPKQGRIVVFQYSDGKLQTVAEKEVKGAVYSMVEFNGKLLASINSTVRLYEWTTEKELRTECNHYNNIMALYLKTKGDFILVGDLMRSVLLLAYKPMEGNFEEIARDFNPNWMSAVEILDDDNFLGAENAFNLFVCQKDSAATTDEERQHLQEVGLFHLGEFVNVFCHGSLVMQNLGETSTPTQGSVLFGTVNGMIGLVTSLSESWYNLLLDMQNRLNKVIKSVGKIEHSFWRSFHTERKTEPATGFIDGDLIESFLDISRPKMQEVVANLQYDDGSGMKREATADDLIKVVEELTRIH
# Assay Protocol: HiBiT degradation assay, CK1α, Procedure A
# Assay type: cell-based
# Conditions Used: six hours incubation

Use these answered entries as a reference point.
Cn1ncc(-c2ccc3c(c2)CN(C2CCC(=O)NC2=O)C3=O)c1-c1ccc(Cl)cc1F (stereo not shown) [Example 79] :: < 25 nM
O=C1CCC(N2Cc3cc(-c4c[nH]nc4-c4ccccc4)ccc3C2=O)C(=O)N1 (stereo not shown) [Example 5] :: < 25 nM
Cn1cnc(-c2ccc3c(c2)CN(C2CCC(=O)NC2=O)C3=O)c1-c1cccc(N)c1 (stereo not shown) [Example 343] :: < 25 nM
Cn1cnc(-c2ccc3c(c2)CN(C2CCC(=O)NC2=O)C3=O)c1-c1ccc(C(=O)N2CCOCC2)cc1 (stereo not shown) [Example 314] :: ≥ 25 nM
Cn1ncc(-c2ccc3c(c2)CN(C2CCC(=O)NC2=O)C3=O)c1-c1cccc(N2CCCC2)c1 (stereo not shown) [Example 55] :: < 25 nM
Cn1ncc(-c2ccc3c(c2)CN(C2CCC(=O)NC2=O)C3=O)c1-c1ccc(F)c(F)c1 (stereo not shown) [Example 134] :: < 25 nM

Item Cn1ncc(-c2ccc3c(c2)CN(C2CCC(=O)NC2=O)C3=O)c1-c1ccc(C(F)(F)F)cc1 (stereo not shown) [Example 63] has what recorded DC50? < 25 nM

---

# Measured On: CK1α (Homo sapiens, UniProt P48729+Q96SW2)
# Construct: CSNK1A1-HiBit KI HEK293(LgBit) Cells; host or cells: HEK293(LgBit) knock-in cells
# Assay Protocol: HiBiT degradation assay, CK1α, Procedure A
# Assay type: cell-based
# Conditions Used: six hours incubation
Items are presented alongside their recorded DC50.

O=C1CCC(N2Cc3cc(-c4cc(-c5ccccc5)no4)ccc3C2=O)C(=O)N1 (centres unmarked) :: < 25 nM
COc1ccc(-c2nn(C(F)F)cc2-c2ccc3c(c2)CN(C2CCC(=O)NC2=O)C3=O)cc1F (centres unmarked) :: < 25 nM
Cn1cnc(-c2ccc3c(c2)CN(C2CCC(=O)NC2=O)C3=O)c1-c1cccc(CN2CCCC2)c1 (centres unmarked) :: ≥ 25 nM
O=C1CCC(N2Cc3cc(-c4nccn4C4CCCCC4)ccc3C2=O)C(=O)N1 (centres unmarked) :: < 25 nM
Cn1ncc(-c2ccc3c(c2)CN(C2CCC(=O)NC2=O)C3=O)c1-c1ccc(Oc2cccnc2)cc1 (centres unmarked) :: ≥ 25 nM

Item Cn1ncc(-c2ccc3c(c2)CN(C2CCC(=O)NC2=O)C3=O)c1-c1ccc(Cl)cc1 (centres unmarked) [Example 216] has what recorded DC50? < 25 nM

Item Cn1cnc(-c2ccc3c(c2)CN(C2CCC(=O)NC2=O)C3=O)c1-c1cccc(-c2ccccc2)c1 (centres unmarked) has what recorded DC50? < 25 nM

Item Cn1ncc(-c2ccc3c(c2)CN(C2CCC(=O)NC2=O)C3=O)c1-c1ccc(O)cc1 (centres unmarked) has what recorded DC50? < 25 nM

---

# Measured On: CK1α (Homo sapiens, UniProt P48729+Q96SW2)
# Construct: CSNK1A1-HiBit KI HEK293(LgBit) Cells; host or cells: HEK293(LgBit) knock-in cells
# Assay Protocol: HiBiT degradation assay, CK1α, Procedure A
# Type: cell-based
# Conditions Used: six hours incubation
Recorded Metric: CK1α Ymin

Cc1ccc(-c2c(-c3ccc4c(c3)CN(C3CCC(=O)NC3=O)C4=O)ncn2C)s1 (stereo not shown) :: C (C = 0-10% remaining)
Cn1ccc(-c2c(-c3ccc4c(c3)CN(C3CCC(=O)NC3=O)C4=O)cnn2C)c1 (stereo not shown) :: C (C = 0-10% remaining)
Cn1ncc(-c2ccc3c(c2)CN(C2CCC(=O)NC2=O)C3=O)c1-c1cccc(O)c1 (stereo not shown) :: C (C = 0-10% remaining)
